SYSTEM: Proto-oncogene tyrosine-protein kinase ROS (Homo sapiens) (UniProt P08922)
Sequence (P08922 whole entry): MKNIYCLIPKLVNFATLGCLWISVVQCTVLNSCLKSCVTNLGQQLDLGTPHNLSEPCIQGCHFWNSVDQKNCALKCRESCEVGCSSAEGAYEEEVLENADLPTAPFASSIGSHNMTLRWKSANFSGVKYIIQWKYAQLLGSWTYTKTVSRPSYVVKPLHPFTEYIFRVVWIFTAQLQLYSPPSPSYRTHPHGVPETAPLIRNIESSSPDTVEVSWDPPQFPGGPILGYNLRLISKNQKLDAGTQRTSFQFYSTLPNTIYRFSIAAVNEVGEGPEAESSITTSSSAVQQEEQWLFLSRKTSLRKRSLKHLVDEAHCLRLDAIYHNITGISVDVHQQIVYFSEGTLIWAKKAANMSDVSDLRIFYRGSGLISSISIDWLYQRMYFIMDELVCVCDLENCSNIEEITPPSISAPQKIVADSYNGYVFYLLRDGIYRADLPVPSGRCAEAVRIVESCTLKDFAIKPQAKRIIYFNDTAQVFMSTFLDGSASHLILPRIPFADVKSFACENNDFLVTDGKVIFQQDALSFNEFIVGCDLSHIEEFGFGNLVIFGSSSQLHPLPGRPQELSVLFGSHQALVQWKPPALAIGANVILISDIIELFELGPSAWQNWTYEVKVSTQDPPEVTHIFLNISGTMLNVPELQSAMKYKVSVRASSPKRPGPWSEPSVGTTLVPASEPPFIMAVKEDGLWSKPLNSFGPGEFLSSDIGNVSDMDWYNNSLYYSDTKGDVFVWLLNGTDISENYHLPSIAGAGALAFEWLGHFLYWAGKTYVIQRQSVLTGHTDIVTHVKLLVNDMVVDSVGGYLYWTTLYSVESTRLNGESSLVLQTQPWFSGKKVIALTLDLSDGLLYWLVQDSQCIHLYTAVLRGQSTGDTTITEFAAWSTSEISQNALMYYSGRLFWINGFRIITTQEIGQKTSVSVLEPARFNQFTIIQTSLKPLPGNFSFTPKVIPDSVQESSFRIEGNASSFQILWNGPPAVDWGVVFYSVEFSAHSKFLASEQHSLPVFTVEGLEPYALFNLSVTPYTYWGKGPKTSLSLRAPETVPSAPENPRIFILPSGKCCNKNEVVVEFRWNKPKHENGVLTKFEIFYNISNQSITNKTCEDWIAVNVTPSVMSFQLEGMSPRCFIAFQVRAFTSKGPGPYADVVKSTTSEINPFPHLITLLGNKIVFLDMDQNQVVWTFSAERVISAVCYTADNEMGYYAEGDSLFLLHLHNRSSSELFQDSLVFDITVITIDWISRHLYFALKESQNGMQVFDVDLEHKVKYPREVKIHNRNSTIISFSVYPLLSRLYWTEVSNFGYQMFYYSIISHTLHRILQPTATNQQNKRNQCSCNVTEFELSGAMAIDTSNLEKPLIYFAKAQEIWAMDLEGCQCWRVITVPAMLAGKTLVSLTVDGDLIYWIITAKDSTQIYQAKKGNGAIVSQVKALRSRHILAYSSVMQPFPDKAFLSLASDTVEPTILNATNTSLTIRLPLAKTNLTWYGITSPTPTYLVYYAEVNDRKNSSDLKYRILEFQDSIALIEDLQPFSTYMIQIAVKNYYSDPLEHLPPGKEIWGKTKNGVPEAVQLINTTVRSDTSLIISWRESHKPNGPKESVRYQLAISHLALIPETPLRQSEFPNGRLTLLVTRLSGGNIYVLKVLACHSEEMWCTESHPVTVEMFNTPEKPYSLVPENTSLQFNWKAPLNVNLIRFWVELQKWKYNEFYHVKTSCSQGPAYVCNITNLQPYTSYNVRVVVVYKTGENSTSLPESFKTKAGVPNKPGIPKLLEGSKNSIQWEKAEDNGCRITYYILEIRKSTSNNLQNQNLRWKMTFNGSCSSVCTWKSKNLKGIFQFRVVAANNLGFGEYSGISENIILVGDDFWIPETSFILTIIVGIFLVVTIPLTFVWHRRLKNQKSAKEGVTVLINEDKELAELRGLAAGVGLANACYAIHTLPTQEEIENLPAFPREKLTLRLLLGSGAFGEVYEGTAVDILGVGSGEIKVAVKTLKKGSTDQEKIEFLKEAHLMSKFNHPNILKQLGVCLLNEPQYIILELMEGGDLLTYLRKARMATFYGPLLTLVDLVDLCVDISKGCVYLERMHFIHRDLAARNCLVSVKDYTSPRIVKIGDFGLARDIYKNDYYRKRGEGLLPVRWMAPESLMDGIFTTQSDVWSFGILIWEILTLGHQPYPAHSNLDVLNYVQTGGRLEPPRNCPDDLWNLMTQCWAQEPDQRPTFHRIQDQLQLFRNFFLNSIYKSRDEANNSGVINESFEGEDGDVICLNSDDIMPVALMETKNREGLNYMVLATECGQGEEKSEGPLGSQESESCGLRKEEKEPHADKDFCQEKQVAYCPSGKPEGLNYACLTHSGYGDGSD
CONDITION INFO: at 0.1 µM
Description: GSK_PKIS: ROS mean inhibition at 0.1 uM [Nanosyn]
Item-by-item account of inhibition
MEASURED PARAMETER: inhibition (%)

# COMPOUND STRUCTURE STRING, VALUE UNIT, REPORTED
rows = [
    ("Cc1cc(-c2ccco2)cc(C)c1/C=C/c1cncc(-c2nn[nH]n2)c1", "%", 2.71),
    ("NS(=O)(=O)c1ccc(N/C=C2\\C(=O)Nc3ccc4ncsc4c32)cc1", "%", 6.11),
    ("COc1cccc(-n2ncc3c(N/N=C/c4ccncc4)ncnc32)c1", "%", 10.2),
    ("CCn1c(-c2nonc2N)nc2c(C#CC(C)(C)O)ncc(OCC3CCNCC3)c21", "%", 3.89),
    ("CCn1c(-c2nonc2N)nc2c(C#CC(C)(C)O)ncc(OC[C@@H]3CCCN3)c21", "%", -0.22),
    ("Nc1nonc1-c1nc2cnccc2n1C1CCCCC1", "%", 5.33),
    ("COc1cc(C=NNc2ncnc3c2cnn3Cc2ccccc2)ccc1O", "%", 2.7),
    ("CCn1c(-c2nonc2N)nc2c(C#CC(C)(C)O)nc(O[C@@H](CN)c3ccccc3)cc21", "%", 2.61),
    ("CCn1c(-c2nonc2N)nc2c(C#CCN)ncc(OCCCN)c21", "%", 3.3),
    ("Fc1ccc(-c2ncn(C3CCNCC3)c2-c2ccnc(Oc3ccccc3)n2)cc1", "%", 2.25),
]

###

SYSTEM: Phosphatidylinositol 4,5-bisphosphate 3-kinase catalytic subunit delta isoform (Homo sapiens) (UniProt O00329);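 further: reported values are mean percent inhibition of PI3K-delta activity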
Sequence (O00329 whole entry, canonical isoform): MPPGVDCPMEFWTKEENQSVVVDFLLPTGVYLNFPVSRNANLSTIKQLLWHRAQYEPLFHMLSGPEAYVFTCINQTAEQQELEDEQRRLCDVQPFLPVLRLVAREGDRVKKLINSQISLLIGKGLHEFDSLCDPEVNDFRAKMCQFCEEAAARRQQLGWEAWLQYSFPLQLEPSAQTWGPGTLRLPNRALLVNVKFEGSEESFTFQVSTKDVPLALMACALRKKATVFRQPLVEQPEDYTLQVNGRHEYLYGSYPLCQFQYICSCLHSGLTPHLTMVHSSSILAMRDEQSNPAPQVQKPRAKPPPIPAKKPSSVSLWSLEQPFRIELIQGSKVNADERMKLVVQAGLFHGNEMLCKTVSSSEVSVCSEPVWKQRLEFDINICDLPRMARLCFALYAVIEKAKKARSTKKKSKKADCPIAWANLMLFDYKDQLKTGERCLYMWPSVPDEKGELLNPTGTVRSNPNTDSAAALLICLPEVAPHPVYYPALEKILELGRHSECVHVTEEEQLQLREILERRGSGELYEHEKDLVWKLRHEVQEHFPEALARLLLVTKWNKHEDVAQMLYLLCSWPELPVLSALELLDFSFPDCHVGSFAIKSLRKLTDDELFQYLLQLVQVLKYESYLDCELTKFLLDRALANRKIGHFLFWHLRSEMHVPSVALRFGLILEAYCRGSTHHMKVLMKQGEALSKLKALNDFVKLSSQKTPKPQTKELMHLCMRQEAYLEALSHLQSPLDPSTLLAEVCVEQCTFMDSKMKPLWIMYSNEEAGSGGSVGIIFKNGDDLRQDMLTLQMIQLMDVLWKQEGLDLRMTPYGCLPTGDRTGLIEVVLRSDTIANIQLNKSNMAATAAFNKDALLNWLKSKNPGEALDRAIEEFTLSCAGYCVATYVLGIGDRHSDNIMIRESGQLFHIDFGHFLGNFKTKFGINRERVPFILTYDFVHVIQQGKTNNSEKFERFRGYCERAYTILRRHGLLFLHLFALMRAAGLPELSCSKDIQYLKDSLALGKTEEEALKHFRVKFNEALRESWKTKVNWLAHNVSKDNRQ
CONDITION INFO: at 1 µM
Item-by-item account of inhibition

# COMPOUND STRUCTURE STRING, inhibition, %
records = [
    ("Cc1cc(-c2ccco2)cc(C)c1/C=C/c1cncc(-c2nn[nH]n2)c1", -1.23),
    ("CCn1c(-c2nonc2N)nc2c(C#CC(C)(C)O)nc(O[C@@H](CN)c3ccccc3)cc21", 3.42),
    ("NS(=O)(=O)c1ccc(N/C=C2\\C(=O)Nc3ccc4ncsc4c32)cc1", 12.7),
    ("NS(=O)(=O)c1ccc(-c2ccc3c(NC(=O)C4CC4)n[nH]c3c2)cc1", 8.4),
    ("NC(=O)c1sc(-n2cnc3cc(C(F)(F)F)ccc32)cc1OCc1ccccc1Br", 1.77),
    ("CCn1c(-c2nonc2N)nc2c(C#CC(C)(C)O)ncc(OCC3CCNCC3)c21", -0.9),
    ("COc1cccc(COc2cc(-n3cnc4ccccc43)sc2C(N)=O)c1", 3.63),
    ("COc1cccc(-n2ncc3c(N/N=C/c4ccncc4)ncnc32)c1", 10),
    ("CCn1c(-c2nonc2N)nc2c(C#CCN)ncc(OCCCN)c21", -5.7),
    ("CCn1c(-c2nonc2N)nc2c(C#CC(C)(C)O)ncc(OC[C@@H]3CCCN3)c21", 0.22),
    ("COc1cc(C=NNc2ncnc3c2cnn3Cc2ccccc2)ccc1O", 6.81),
]

###

Item-by-item account of inhibition
SYSTEM: Non-receptor tyrosine-protein kinase TNK1 (Homo sapiens) (UniProt Q13470);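 further: values are averaged percent inhibition of TNK1, compounds from the GSK published kinase inhibitor set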
Sequence (whole entry): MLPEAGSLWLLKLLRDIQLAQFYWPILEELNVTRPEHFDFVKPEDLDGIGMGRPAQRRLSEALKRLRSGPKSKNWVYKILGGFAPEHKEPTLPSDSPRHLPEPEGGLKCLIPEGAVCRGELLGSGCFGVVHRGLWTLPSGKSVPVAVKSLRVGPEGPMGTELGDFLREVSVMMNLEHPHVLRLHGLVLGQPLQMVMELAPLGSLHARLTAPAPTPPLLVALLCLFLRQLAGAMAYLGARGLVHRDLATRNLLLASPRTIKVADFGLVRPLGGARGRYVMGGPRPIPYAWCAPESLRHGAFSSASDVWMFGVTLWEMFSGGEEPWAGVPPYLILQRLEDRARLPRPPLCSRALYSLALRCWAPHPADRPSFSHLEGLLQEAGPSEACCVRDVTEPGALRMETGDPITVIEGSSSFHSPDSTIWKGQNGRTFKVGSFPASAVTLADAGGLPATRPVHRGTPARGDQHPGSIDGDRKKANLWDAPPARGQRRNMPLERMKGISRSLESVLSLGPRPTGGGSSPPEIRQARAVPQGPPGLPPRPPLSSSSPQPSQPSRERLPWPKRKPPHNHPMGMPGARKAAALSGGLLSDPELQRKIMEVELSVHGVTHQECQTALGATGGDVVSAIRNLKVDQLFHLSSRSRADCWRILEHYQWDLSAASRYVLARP
CONDITION INFO: at 1 µM

# COMPOUND STRUCTURE STRING, VALUE UNIT, inhibition
data = [
    ("Nc1nonc1-c1nc2cnccc2n1C1CCCCC1", "%", 20.8),
    ("NS(=O)(=O)c1ccc(-c2ccc3c(NC(=O)C4CC4)n[nH]c3c2)cc1", "%", 4.7),
    ("Fc1ccc(-c2ncn(C3CCNCC3)c2-c2ccnc(Oc3ccccc3)n2)cc1", "%", 1.01),
    ("CCn1c(-c2nonc2N)nc2c(C#CC(C)(C)O)ncc(OC[C@@H]3CCCN3)c21", "%", 1.67),
    ("NS(=O)(=O)c1ccc(N/C=C2\\C(=O)Nc3ccc4ncsc4c32)cc1", "%", 37.8),
    ("COc1cccc(-n2ncc3c(N/N=C/c4ccncc4)ncnc32)c1", "%", 52.3),
    ("CCn1c(-c2nonc2N)nc2c(C#CCN)ncc(OCCCN)c21", "%", 10.6),
    ("COc1cc2c(cc1Nc1nc(Nc3ccsc3C(N)=O)c3cc[nH]c3n1)N(C(=O)CN(C)C)CCC2", "%", 80.2),
]

###

SYSTEM: Ephrin type-A receptor 2 (Homo sapiens);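 further: value is the mean inhibition of EPHA2, measured in the GSK PKIS screen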
CONDITION INFO: at 1 µM

# COMPOUND STRUCTURE STRING, SYSTEM, inhibition
data = [
    ("COc1cccc(-n2ncc3c(N/N=C/c4ccncc4)ncnc32)c1", "Ephrin type-A receptor 2 (Homo sapiens)", "15.8%"),
    ("Nc1nonc1-c1nc2cnccc2n1C1CCCCC1", "Ephrin type-A receptor 2 (Homo sapiens)", "-4.85%"),
    ("NC(=O)c1sc(-n2cnc3cc(C(F)(F)F)ccc32)cc1OCc1ccccc1Br", "Ephrin type-A receptor 2 (Homo sapiens)", "0.32%"),
    ("CCn1c(-c2nonc2N)nc2c(C#CCN)ncc(OCCCN)c21", "Ephrin type-A receptor 2 (Homo sapiens)", "1.78%"),
    ("Cc1cc(-c2ccco2)cc(C)c1/C=C/c1cncc(-c2nn[nH]n2)c1", "Ephrin type-A receptor 2 (Homo sapiens)", "1.78%"),
    ("NS(=O)(=O)c1ccc(N/C=C2\\C(=O)Nc3ccc4ncsc4c32)cc1", "Ephrin type-A receptor 2 (Homo sapiens)", "1.66%"),
    ("COc1cccc(COc2cc(-n3cnc4ccccc43)sc2C(N)=O)c1", "Ephrin type-A receptor 2 (Homo sapiens)", "1.85%"),
    ("Fc1ccc(-c2ncn(C3CCNCC3)c2-c2ccnc(Oc3ccccc3)n2)cc1", "Ephrin type-A receptor 2 (Homo sapiens)", "-5.64%"),
    ("CCn1c(-c2nonc2N)nc2c(C#CC(C)(C)O)ncc(OC[C@@H]3CCCN3)c21", "Ephrin type-A receptor 2 (Homo sapiens)", "0.02%"),
    ("CCn1c(-c2nonc2N)nc2c(C#CC(C)(C)O)nc(O[C@@H](CN)c3ccccc3)cc21", "Ephrin type-A receptor 2 (Homo sapiens)", "-4.53%"),
]

###

Item-by-item account of inhibition
SYSTEM: G protein-coupled receptor kinase 6 (Homo sapiens) (UniProt P43250);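 further: values are averaged percent inhibition of GRK6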
Sequence (P43250 whole entry, looked up): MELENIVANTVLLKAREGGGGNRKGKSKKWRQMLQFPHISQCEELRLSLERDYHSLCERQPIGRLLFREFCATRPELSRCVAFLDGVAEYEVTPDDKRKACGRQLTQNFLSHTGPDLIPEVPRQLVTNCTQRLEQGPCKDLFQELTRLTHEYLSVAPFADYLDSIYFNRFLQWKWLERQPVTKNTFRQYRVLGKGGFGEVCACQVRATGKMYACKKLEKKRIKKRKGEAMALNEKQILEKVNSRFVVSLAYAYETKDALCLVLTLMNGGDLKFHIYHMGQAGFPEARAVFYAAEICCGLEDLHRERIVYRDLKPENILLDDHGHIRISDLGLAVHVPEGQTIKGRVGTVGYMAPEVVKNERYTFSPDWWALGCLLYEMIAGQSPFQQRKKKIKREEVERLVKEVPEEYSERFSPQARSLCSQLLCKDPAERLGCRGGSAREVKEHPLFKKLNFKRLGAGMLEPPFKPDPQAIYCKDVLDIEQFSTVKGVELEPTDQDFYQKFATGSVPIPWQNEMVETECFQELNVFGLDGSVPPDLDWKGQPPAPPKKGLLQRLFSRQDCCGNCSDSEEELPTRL
CONDITION INFO: at 1 µM
MEASURED PARAMETER: inhibition (%)

# COMPOUND STRUCTURE STRING, MEASURED PARAMETER, REPORTED
measured = [
    ("NS(=O)(=O)c1ccc(N/C=C2\\C(=O)Nc3ccc4ncsc4c32)cc1", "inhibition", 18.7),
    ("COc1cc(C=NNc2ncnc3c2cnn3Cc2ccccc2)ccc1O", "inhibition", -0.64),
    ("Nc1nonc1-c1nc2cnccc2n1C1CCCCC1", "inhibition", 2.07),
    ("CCn1c(-c2nonc2N)nc2c(C#CCN)ncc(OCCCN)c21", "inhibition", 6.23),
    ("CCn1c(-c2nonc2N)nc2c(C#CC(C)(C)O)nc(O[C@@H](CN)c3ccccc3)cc21", "inhibition", 1.51),
    ("COc1cccc(-n2ncc3c(N/N=C/c4ccncc4)ncnc32)c1", "inhibition", 1.85),
    ("NC(=O)c1sc(-n2cnc3cc(C(F)(F)F)ccc32)cc1OCc1ccccc1Br", "inhibition", 1.08),
]

###

Item-by-item account of inhibition
SYSTEM: Serine/threonine-protein kinase Nek9 (Homo sapiens);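 further: reported value is the mean percent inhibition of NEK9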
CONDITION INFO: at 0.1 µM

# COMPOUND STRUCTURE STRING, VALUE UNIT, inhibition
records = [
    ("Nc1nonc1-c1nc2cnccc2n1C1CCCCC1", "%", -5.44),
    ("Fc1ccc(-c2ncn(C3CCNCC3)c2-c2ccnc(Oc3ccccc3)n2)cc1", "%", 2.53),
    ("COc1cccc(-n2ncc3c(N/N=C/c4ccncc4)ncnc32)c1", "%", 7.16),
    ("COc1cc2c(cc1Nc1nc(Nc3ccsc3C(N)=O)c3cc[nH]c3n1)N(C(=O)CN(C)C)CCC2", "%", 1.89),
    ("CCn1c(-c2nonc2N)nc2c(C#CC(C)(C)O)ncc(OCC3CCNCC3)c21", "%", 5.3),
    ("CCn1c(-c2nonc2N)nc2c(C#CC(C)(C)O)ncc(OC[C@@H]3CCCN3)c21", "%", -1.1),
]
